Assay: First-in-human clinical study: plasma and whole blood PK of INX-315 (oral QD, ASD tablet)
Type: in vivo
Settings: human, plasma, oral, 300 mg, Cohort 3 (300 mg QD), Day 1, individual subjects; read-out: AUC Plasma

{"columns": ["compound", "measure unit", "AUC"],
 "data": [
  ["NS(=O)(=O)c1ccc(Nc2ncc3cc4n(c3n2)C2(CCCCC2)C(=O)NN4)cc1 [INX-315]", "ng·h/mL", 8200]
]}

* * *

Assay: First-in-human clinical study: plasma and whole blood PK of INX-315 (oral QD, ASD tablet)
Type: in vivo
Conditions: human, plasma, oral, 100 mg, plasma, 100 mg QD, Day 1 (Example 10); read-out: Cmax

{"columns": ["chemical structure", "Cmax (ng/mL)"],
 "data": [
  ["NS(=O)(=O)c1ccc(Nc2ncc3cc4n(c3n2)C2(CCCCC2)C(=O)NN4)cc1", 148]
]}

* * *

Experiment: First-in-human clinical study: plasma and whole blood PK of INX-315 (oral QD, ASD tablet)
Format: in vivo
Conditions: human, plasma, oral, 200 mg, 200 mg QD (n = 2), 1.0 hr

{"columns": ["chemical structure", "concentration at 1 h, ng/mL"],
 "data": [
  ["NS(=O)(=O)c1ccc(Nc2ncc3cc4n(c3n2)C2(CCCCC2)C(=O)NN4)cc1", 109]
]}

* * *

Assay: First-in-human clinical study: plasma and whole blood PK of INX-315 (oral QD, ASD tablet)
Format: in vivo
Conditions: human, plasma, po, 100 mg, plasma, 100 mg QD cohort, Day 1, geometric mean; read-out: Cmax, Geometric Mean
Experimental: All INX-315 tablets were taken at approximately the same time(s) each day. Samples will also be collected pre-dose on Cycle 1 Days 2, 8, 16, and Day 22, and pre-dose on Day 1 of each subsequent cycle. Standard non-compartmental PK parameters were estimated. […] PK parameters will be summarized descriptively by dosing cohort. […] Dose proportionality will be assessed for AUC and Cmax using a power model. […] Patients were upgraded to the 200 mg QD dose level and PK/PD plasma parameters were measured (FIG. 18A). […]

{"columns": ["chemical structure", "Cmax"],
 "data": [
  ["NS(=O)(=O)c1ccc(Nc2ncc3cc4n(c3n2)C2(CCCCC2)C(=O)NN4)cc1", "148 ng/mL"]
]}

* * *

Assay: First-in-human clinical study: plasma and whole blood PK of INX-315 (oral QD, ASD tablet)
Type: in vivo
Settings: human, plasma, oral, 300 mg, plasma, 300 mg QD cohort, Day 1, individual subjects; read-out: Cmax
measurement type: Cmax (ng/mL)

{"columns": ["chemical structure", "measurement type", "experimental value"],
 "data": [
  ["NS(=O)(=O)c1ccc(Nc2ncc3cc4n(c3n2)C2(CCCCC2)C(=O)NN4)cc1", "Cmax", 727]
]}

* * *

Assay: First-in-human clinical study: plasma and whole blood PK of INX-315 (oral QD, ASD tablet)
Type: in vivo
Settings: human, plasma, oral, 100 mg, plasma, 100 mg QD, Day 15, individual patients; read-out: Cmax
Description: All INX-315 tablets were taken at approximately the same time(s) each day. Samples will also be collected pre-dose on Cycle 1 Days 2, 8, 16, and Day 22, and pre-dose on Day 1 of each subsequent cycle. Standard non-compartmental PK parameters were estimated. […] PK parameters will be summarized descriptively by dosing cohort. […] Dose proportionality will be assessed for AUC and Cmax using a power model. […] Patients were upgraded to the 200 mg QD dose level and PK/PD plasma parameters were measured (FIG. 18A). […]
measurement type: Cmax (ng/mL)

{"columns": ["molecule", "measurement type", "measure unit", "experimental value"],
 "data": [
  ["NS(=O)(=O)c1ccc(Nc2ncc3cc4n(c3n2)C2(CCCCC2)C(=O)NN4)cc1 [INX-315]", "Cmax", "ng/mL", 457]
]}
